experiment description: High Content Assay for Compounds that inhibit the Assembly of the Perinucleolar Compartment;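 also: plate controls were DMSO wells for no effect and camptothecin positive control wells for full effect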
condition description: PC3M PTB-GFP, PNC prevalence imaging, 16 h; at 10 µM; hits give low values
In all, about 140,000 compounds went through this assay and about 4,300 (3.1%) were called active. Another 21% or so got no clear call; they are omitted. The full list was thinned out, with actives kept by preference.
test readout: activity change (PNC), negative = inhibition (%)

compound: COc1ccc(NC(=S)NC2CCS(=O)(=O)C2)cc1 (configuration not stated)
unit: %
data value: 36.6
--
compound: Cc1cc(C)c2c(n1)sc1c(=O)n(-c3ccccc3)c(=O)[nH]c12
unit: %
data value: 19.8
--
compound: CC(C)(C)CC(C)(C)NCC(O)COCCOc1ccc(Br)cc1 (configuration not stated)
unit: %
data value: 6.23
--
compound: Cc1ccc(-n2ccc(=O)c(C(=O)O)n2)cc1
unit: %
data value: -18.4
--
compound: O=C(CN1CCN(C2CCCCC2)CC1)Nc1ccccc1N1CCCCC1
unit: %
data value: -8.13
--
compound: CC(Sc1nc(-c2ccccc2)cc(C(F)(F)F)n1)C(=O)Nc1ccc2c(c1)OCO2 (configuration not stated)
unit: %
data value: -18
--
compound: CCn1c(/C=N/NC(=O)c2ccc(OC)cc2)nc2ccccc21
unit: %
data value: 27.2
--
compound: CCOc1ccc(-c2n[nH]c(=S)n2/N=C/c2cc3c(cc2[N+](=O)[O-])OCO3)cc1
unit: %
data value: 25.2
--
compound: O=C(Cc1ccccc1)NC(=S)Nc1ccc(N2CCCCC2)cc1
unit: %
data value: -26.1
--
compound: CCN(CC)c1ccc(C(=O)N/N=C(\C)c2cccc(OC)c2)cc1
unit: %
data value: 14.7
--
compound: CCCOC(=O)c1[nH]c2c(c1C)C(=O)CC(c1cc(OC)c(OC)c(OC)c1)C2 (configuration not stated)
unit: %
data value: 10.3
--
compound: Cc1ccc(NC(=O)COC(=O)CCc2nc3ccccc3n2-c2ccccc2)c(C)c1
unit: %
data value: 55.5
--
compound: O=C(OCC(=O)c1c[nH]c2ccccc12)c1cccc(O)c1
unit: %
data value: 49.4
--
compound: Cc1ccc(N2CCN(c3ccc(C)cc3)C2c2ccccn2)cc1
unit: %
data value: -81.6
--
compound: CCCOC(=O)c1[nH]c2c(c1C)C(=O)CC(c1cccs1)C2 (configuration not stated)
unit: %
data value: -85.9
--
compound: Cc1ccc(S(=O)(=O)NCC(=O)N2CCN(c3ccccn3)CC2)cc1
unit: %
data value: -10
--
compound: CCc1nccn1S(=O)(=O)c1cccc([N+](=O)[O-])c1
unit: %
data value: 10
--
compound: CCOC(=O)c1[nH]c2c(c1-c1ccccc1)C(=O)CC(c1ccc(Cl)cc1)C2 (configuration not stated)
unit: %
data value: 35.7
--
compound: O=C(Nc1ccccc1Cc1ccccc1)c1ccc2c(c1)SC1=NS(=O)(=O)CCN12
unit: %
data value: 18.7
--
compound: Cc1nn(C)c(C(=O)NNC(=S)NC2CCCCC2)c1Cl
unit: %
data value: 8.24
--
compound: COc1cc(C(=O)Nc2cc(C(F)(F)F)ccc2N2CCOCC2)ccc1O
unit: %
data value: 44.6
--
compound: Cc1ccccc1NC(=O)CNc1ccccc1N1CCCCC1
unit: %
data value: -94.9

---

experiment description: High Content Assay for Compounds that inhibit the Assembly of the Perinucleolar Compartment;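 also: plate controls were DMSO wells for no effect and camptothecin positive control wells for full effect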
condition description: PC3M PTB-GFP, PNC prevalence imaging, 16 h; at 10 µM; hits give low values
In all, about 140,000 compounds went through this assay and about 4,300 (3.1%) were called active. Inconclusive results (about 21%) are left out. Only a selection was taken, and actives are over-represented in it overall.
test readout: activity change (PNC), negative = inhibition (%)

compound: Cc1cccc(OP(=O)(Nc2c(C)n(C)n(-c3ccccc3)c2=O)Oc2cccc(C)c2)c1
unit: %
data value: -6.43
//
compound: NS(=O)(=O)c1cc(C(=O)NCCOc2ccccc2)c(Cl)cc1Cl
unit: %
data value: -9.28
//
compound: Cc1cccc2cc(C#N)c(N3CCCC3)nc12
unit: %
data value: -8.64
//
compound: CC(=O)Nc1ccc(N2C(=O)C3C4CC(=O)C(c5ccccc54)C3C2=O)cc1 (stereo unspecified)
unit: %
data value: 13.1
//
compound: CCC(=O)NCCc1nc2ccccc2n1CC
unit: %
data value: 14
//
compound: COc1ccc(N2C(=O)C(O)C2c2ccc(C)cc2)cc1 (stereo unspecified)
unit: %
data value: -29.1
//
compound: CCS(=O)(=O)N1Cc2ccccc2CC1C(=O)Nc1nc2ccc(F)cc2s1 (stereo unspecified)
unit: %
data value: 48.1
//
compound: CC(=O)Oc1cccc(N2C(=O)C3CC=C(Cl)CC3C2=O)c1 (stereo unspecified)
unit: %
data value: -0.248
//
compound: CCOC(=O)C(NC(=O)CC(C)C)(Nc1sc2c(c1C(N)=O)CCCC2)C(F)(F)F (stereo unspecified)
unit: %
data value: 0.0946
//
compound: Cc1ccc(C(=O)OCc2nc(N)nc(Nc3ccccc3C)n2)cc1
unit: %
data value: -25
//
compound: Cc1cc(N2CCOCC2)nc(-c2ccc(Br)cc2)n1
unit: %
data value: -19.2

---

experiment description: High Content Assay for Compounds that inhibit the Assembly of the Perinucleolar Compartment;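 also: plate controls were DMSO wells for no effect and camptothecin positive control wells for full effect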
condition description: PC3M PTB-GFP, PNC prevalence imaging, 16 h; at 10 µM; hits give low values
The campaign covered roughly 140,000 compounds. About 4,300 (3.1%) were called active. Inconclusive results (about 21%) are left out. The list comes from a sample in which actives are over-represented; it also holds close analogues and randomly drawn compounds.
Catalogue of activity change (PNC), negative = inhibition values
test readout: activity change (PNC), negative = inhibition (%)

molecule: CCC1C=C(c2ccccc2)C=CN=C1N(CC)CC (stereo unspecified)
unit: %
data value: -9.28
--
molecule: CC(C)(C)c1cc(C(=O)NCc2cccnc2)ccn1
unit: %
data value: 47.5
--
molecule: S=C(NCc1ccc(Cl)cc1)NC1CCCCC1
unit: %
data value: 32.1
--
molecule: O=C(Nc1cccc(S(=O)(=O)N2CCCCC2)c1)c1ccc2c(c1)OCO2
unit: %
data value: -20.4
--
molecule: O=C(COc1ncnc2c(Cl)cc(Cl)cc12)N1CCN(S(=O)(=O)c2ccccc2)CC1
unit: %
data value: 25.7
--
molecule: O=C(CN1CCN(S(=O)(=O)c2ccc(Br)cc2)CC1)Nc1ccccc1C(=O)c1ccccc1
unit: %
data value: 41.1
--
molecule: COc1ccc2[nH]c(=O)c(CN(Cc3nnnn3CCc3ccccc3)CC3CCCO3)cc2c1 (stereo unspecified)
unit: %
data value: -7.29
--
molecule: Cc1c(C(=O)N2CCOCC2)[nH]c2ccc(OCc3ccccc3)cc12
unit: %
data value: -12.2
--
molecule: O=C(NCc1cccs1)C(=O)NCC1OCCCN1S(=O)(=O)c1ccc(F)cc1 (stereo unspecified)
unit: %
data value: 17.8
--
molecule: Cc1ccc(N(C(=O)c2ccc(CN3CCOCC3)o2)C(C(=O)NCCC(C)C)c2cccs2)c(C)c1 (stereo unspecified)
unit: %
data value: 4.19
--
molecule: CCOc1ccccc1NC(=O)Nc1cc(OC)ccc1OC
unit: %
data value: 48.5
--
molecule: CC1Cc2ccccc2N1C(=O)CSc1nnc(-c2ccc(S(=O)(=O)N3CCCC3)cc2)n1C (stereo unspecified)
unit: %
data value: -4.26
--
molecule: Cc1ccc(N2C(=O)C(NC(=O)c3c(F)cccc3F)(C(F)(F)F)C3=C2CC(C)(C)CC3=O)cc1 (stereo unspecified)
unit: %
data value: -6.53
--
molecule: COc1ccc(N2C(=O)CC(SC(C)C)C2=O)cc1 (stereo unspecified)
unit: %
data value: 36.9
--
molecule: CCOC(=O)c1[nH]c2ccc(OC)cc2c1NC(=O)N1CCOCC1
unit: %
data value: -102
--
molecule: Cc1cc(F)ccc1S(=O)(=O)N1CCCOC1CNC(=O)C(=O)NCCC1=CCCCC1 (stereo unspecified)
unit: %
data value: 14.2
--
molecule: CC(C)n1c(NCc2c[nH]c3ccccc23)nc2ccccc21
unit: %
data value: -100
--
molecule: COc1ccc(-n2c(C)cc(C(=O)CN3C(=O)NC4(CCc5ccccc54)C3=O)c2C)cc1 (stereo unspecified)
unit: %
data value: -15
--
molecule: O=C(NCCc1ccccc1)C1CCC(Cn2c(=O)c3ccccc3n(Cc3cccnc3)c2=O)CC1 (stereo unspecified)
unit: %
data value: 13.2
--
molecule: CCOC(=O)c1nnn(-c2nonc2-n2cccc2)c1CN1CCC(C(=O)OCC)CC1
unit: %
data value: 10.9
--
molecule: COc1ccc(CCC(=O)OCC(=O)Nc2ccc(C)c(S(=O)(=O)N(C)C)c2)cc1
unit: %
data value: 34.8

---

experiment description: High Content Assay for Compounds that inhibit the Assembly of the Perinucleolar Compartment;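 also: plate controls were DMSO wells for no effect and camptothecin positive control wells for full effect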
condition description: PC3M PTB-GFP, PNC prevalence imaging, 16 h; at 10 µM; hits give low values
Out of some 140,000 compounds screened, about 4,300 (3.1%) were called active. About 21% were inconclusive and are not listed. The entries come from a sample that favours actives as a whole.
Label scheme for activity change (PNC), negative = inhibition: low (below -20%), medium (-20% to below 10%), high (10% or more)

molecule: COc1ccccc1-c1nnc(NC(=O)c2cccc(N3C(=O)CCC3=O)c2)o1
category label: medium

molecule: COc1ccccc1-c1nnc(NC(=O)c2ccc3ncsc3c2)o1
category label: low

molecule: Cc1ccc(NC(=O)NC(=O)N(C2CCCCC2)S(=O)(=O)c2ccccc2)cc1
category label: medium

molecule: CC1CCN(c2ccc(S(=O)(=O)Nc3cc(C(=O)O)cc(C(=O)O)c3)cc2[N+](=O)[O-])CC1
category label: medium

molecule: COC(=O)c1cc(NC(=O)Cc2ccccc2[N+](=O)[O-])ccc1Cl
category label: low

molecule: CCC(C)NC(=O)c1ccc(N2CCC3(CC2)OCCO3)c([N+](=O)[O-])c1 (centres undefined)
category label: high

molecule: CC(=O)Nc1ccc(NC(=O)C(C)OC(=O)c2ccccc2C(=O)c2ccc(Cl)c([N+](=O)[O-])c2)cc1 (centres undefined)
category label: high

molecule: CC1CCN(c2ccc(C(=O)Nc3nnc(C4CC4)s3)cc2[N+](=O)[O-])CC1
category label: low

molecule: CCOC(=O)c1c(NC(=O)c2ccc(N3CCOCC3)c([N+](=O)[O-])c2)sc(C)c1C
category label: high
